# Test system: Plasmodium berghei
# ASSAY_EXPLANATION: Screen against P. berghei liver stage (PbLuc), transformed with Luciferase, at 10uM
# Format: functional, HepG2
# STATED_CONDITIONS: tested at 10 uM
In all, about 69,000 compounds went through this assay and about 8,600 (12%) showed an effect of 50% or more. The sample as a whole holds a higher share of strong results than the screen did.
READOUT_TYPE: INHIBITION (%)
API: value field is a number in %; no unit string.

Q: Please indicate recorded INHIBITION of Cc1cnn(C2CCCN(C(=O)CCc3nccs3)C2)c1 (configuration not stated) measured with Plasmodium berghei.
A: 63.9

Q: Please indicate recorded INHIBITION of Cc1ccc(OCC(=O)NC2(C#N)CCSCC2)cc1C measured with Plasmodium berghei.
A: 41.4

Q: Please indicate recorded INHIBITION of CCOC(=O)c1sc(NC(=O)CN2C(=O)CCC2=O)c(C#N)c1C measured with Plasmodium berghei.
A: 32.2

Q: Please indicate recorded INHIBITION of Cc1ccc(C2CCCN(S(C)(=O)=O)C2)nc1 (configuration not stated) measured with Plasmodium berghei.
A: 6.75

Q: Please indicate recorded INHIBITION of Cc1ccc(OCC(=O)NS(=O)(=O)c2cccnc2)cc1C measured with Plasmodium berghei.
A: 1.48

Q: Please indicate recorded INHIBITION of Cc1ccc(OCC(=O)Nc2cc(C(=O)O)cc(S(C)(=O)=O)c2)cc1C measured with Plasmodium berghei.
A: 45.6

Q: Please indicate recorded INHIBITION of O=C(CCc1nccs1)N1CCCC(n2cccn2)C1 (configuration not stated) measured with Plasmodium berghei.
A: 38.5

Q: Please indicate recorded INHIBITION of CCCN1CCN(C(=O)CCn2cccc2)CC1 measured with Plasmodium berghei.
A: 16.8

Q: Please indicate recorded INHIBITION of CCc1ccc(NC(=O)c2cnc(N3CCCC3)nc2C)cc1 measured with Plasmodium berghei.
A: -55.4

Q: Please indicate recorded INHIBITION of Cc1ccc(OCC(=O)Nc2ccc(S(C)(=O)=O)cc2)cc1C measured with Plasmodium berghei.
A: 59.4

Q: Please indicate recorded INHIBITION of CN(C)c1ncccc1CNC(=O)NCCN(C)C1CCCC1 measured with Plasmodium berghei.
A: 28.8

Q: Please indicate recorded INHIBITION of CN1CCOCC2(CCCN(C(=O)c3cnccn3)C2)C1 (configuration not stated) measured with Plasmodium berghei.
A: 18.3

====

# System: Plasmodium berghei
# ASSAY_EXPLANATION: Screen against P. berghei liver stage (PbLuc), transformed with Luciferase, at 10uM
# Assay type: functional, HepG2
# STATED_CONDITIONS: tested at 10 uM
Screen size: about 69,000 compounds; about 8,600 (12%) showed an effect of 50% or more. Only a selection was taken, and strong results are over-represented in it overall.
Classes (INHIBITION): lower band (below 10%), central band (10% to below 40%), upper band (40% or more)

Q: State the band of COc1ccc(CN2C[C@H](OCC3CCOCC3)[C@H]3COC[C@H]32)cc1
A: upper band

Q: State the band of COc1ccccc1CC(=O)N1CCC(NCc2ccncc2)CC1
A: central band

Q: State the band of CC1(C)Cc2nc(C(C)(C)C)ncc2C(NC(=O)C2(N)CC2)C1 (centres undefined)
A: lower band

Q: State the band of Cc1nc(CN2CCCC(NCc3sccc3C)C2)no1 (centres undefined)
A: upper band

Q: State the band of CCCNC(=O)C(C)NC(=O)Nc1ccccc1SC(F)F (centres undefined)
A: upper band

Q: State the band of c1cc(CN2C[C@H](OCC3CCOCC3)[C@H]3COC[C@H]32)co1
A: upper band

Q: State the band of CCc1nc(CN2CCCC(NCc3cnc(C)s3)C2)no1 (centres undefined)
A: central band

Q: State the band of CCc1cnc(N)nc1NCCCn1nc(C)nc1C
A: central band

Q: State the band of Cc1nc(CN2CCCC(Nc3ncnc4ccccc34)C2)no1 (centres undefined)
A: upper band

Q: State the band of Cc1cc(NCc2csc(C)n2)no1
A: central band

Q: State the band of CN1C[C@H](c2ccccc2)[C@H]2CN(C(=O)Cc3ccc(O)cc3)CC[C@H]21
A: central band

Q: State the band of O=C(NCc1ccccn1)[C@]12COC[C@H]1CN(Cc1cccnc1)C2
A: lower band

Q: State the band of COc1ccccc1CC(=O)NCc1ccnc(NC2CC2)c1
A: upper band

Q: State the band of O=C(CCc1ccsc1)NCc1ccnc(OC2CCOCC2)c1
A: lower band

Q: State the band of CCSCc1cccc(NC2CCN(C)C2=O)c1 (centres undefined)
A: upper band

Q: State the band of COCc1nc(CNc2cccc(-c3nc(C)c(C)o3)c2)cs1
A: upper band

Q: State the band of Cc1cc(C)nc(N2CCC(c3cncc(-n4ccnc4)n3)CC2)n1
A: upper band

Q: State the band of Cc1cnn(CC2CCCCN2C(=O)c2ccccc2-n2cccn2)c1 (centres undefined)
A: central band

Q: State the band of COCc1nc(CNc2cccc(-c3csc(C)n3)c2)cs1
A: central band

Q: State the band of c1csc(CN2C[C@H](OCC3CCOCC3)[C@H]3COC[C@H]32)n1
A: central band

Q: State the band of CC(C)SCc1cccc(NC2CCN(C)C2=O)c1 (centres undefined)
A: lower band

Q: State the band of Cc1nc(CN2CCCC(NCc3ccc4ccccc4c3)C2)no1 (centres undefined)
A: upper band

Q: State the band of O=C(NCCCn1nc2ccccn2c1=O)Nc1ccccc1Cl
A: lower band

Q: State the band of Cc1cc(NCc2csc(-c3ccsc3)n2)no1
A: lower band

Q: State the band of c1cn(-c2cncc(C3CCNCC3)n2)cn1
A: lower band

Q: State the band of c1cnc(N2C[C@H](OCC3CCOCC3)[C@H]3COC[C@H]32)nc1
A: upper band

Q: State the band of Cc1ccccc1OCCCC(=O)NCc1ccnc(O)c1
A: lower band

Q: State the band of CCc1nc(CN2CCCC(NCc3cc(C)no3)C2)no1 (centres undefined)
A: central band

Q: State the band of CCc1nnc2n1CCN(C(=O)c1cc3ccccc3[nH]1)C2
A: central band

Q: State the band of CCc1cnc(N)nc1NCc1ccc(OC)c(OC)c1
A: upper band

Q: State the band of CCc1cnc(N)nc1NCCc1ccc(OC)cc1OC
A: upper band

Q: State the band of COCc1nc(CNc2cccc(-c3ncon3)c2)cs1
A: lower band

Q: State the band of COc1ccc(CNc2cc(-c3nc(C)no3)ccn2)c(OC)c1
A: lower band

Q: State the band of CCCOCC1CCN(C(=O)c2cnc(-c3csc(C)n3)nc2O)C1 (centres undefined)
A: lower band

Q: State the band of CCNC(=O)C(C)NC(=O)Nc1ccccc1SCC (centres undefined)
A: lower band

Q: State the band of COc1ccc(OC)c(CCNc2ncc(S(N)(=O)=O)s2)c1
A: lower band

Q: State the band of Cn1ccc(CN2CCC3(CC2)CC(Nc2cnccn2)CO3)n1 (centres undefined)
A: upper band

Q: State the band of COCc1nc(CNc2cc(C)on2)cs1
A: upper band

Q: State the band of CN(C)c1ccc(C(=O)N2CCCC(n3cncn3)C2)nn1 (centres undefined)
A: lower band

Q: State the band of O=C(CCc1ccc(F)cc1)NCc1ccnc(NC2CC2)c1
A: upper band

Q: State the band of c1cc(CN2C[C@H](OCC3CCOCC3)[C@H]3COC[C@H]32)cs1
A: lower band

Q: State the band of CCNC(=O)C(C)NC(=O)Nc1ccccc1SC(F)(F)F (centres undefined)
A: upper band

Q: State the band of CC(=O)N1CCOCC(Cc2ccc3c(ccn3C(C)=O)c2)C1 (centres undefined)
A: central band

Q: State the band of Cc1nc(CN2CCCC(Nc3ncnc4c3CCC4)C2)no1 (centres undefined)
A: upper band

Q: State the band of CCc1cnc(N)nc1NCCCN1CCCCC1CO (centres undefined)
A: lower band

Q: State the band of CCc1cnc(N)nc1NCCCn1cc(Cl)cn1
A: upper band

Q: State the band of CN(C)C(=O)N1CCOCC2(CCN(c3ncccn3)C2)C1 (centres undefined)
A: lower band

Q: State the band of COCC(C)NC(=O)c1sccc1-n1cnnn1 (centres undefined)
A: central band
